Target Entity: Mas-related G-protein coupled receptor member X1 (Homo sapiens)
Test Description: blockade of BAM8-22-evoked MrgX1 calcium response – HEK293 cells, Fluo-4 calcium flux, primary screen (AID 588676)
Condition Set: Fluo-4, BAM8-22 antagonism, at 10 µM
The campaign covered roughly 310,000 compounds. About 3,900 (1.3%) were called active.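 How the source made its calls: active means calcium-response B-score plate-corrected more than 3 library SD below zero, starting fluorescence within 5 deviations, no agonist response on first addition; inactive means the rest.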 Many of the other results were omitted from the sample, so actives are more common in it than they were.
Just give me one of these, please: T = active, F = inactive

Compound	Qualitative Label
O=C(/C=C/c1ccc(N2CCOCC2)cc1)c1ccccc1	F

Test call for this compound, please: CC1(C(=O)NNC(=S)NCC2CCCO2)CC1(Cl)Cl (stereo unspecified)
T

Test call for this compound, please: O=C(COC(=O)/C=C/c1ccc(OC(F)F)cc1)NC1CCCCC1
F

Test call for this compound, please: CC(C)Oc1ccc(C(CC(=O)N2CCOCC2)C(C)C)cc1 (stereo unspecified)
F

Test call for this compound, please: COc1ccc(C(=O)Nc2c(N)nc(SCC(=O)N3CCC(C)CC3)[nH]c2=O)cc1OC
T

Test call for this compound, please: Cc1ccc(C)c(N2CCN(C(=O)Cn3ncn4cccc4c3=O)CC2)c1
F

* * *

Target Entity: Mas-related G-protein coupled receptor member X1 (Homo sapiens)
Test Description: blockade of BAM8-22-evoked MrgX1 calcium response – HEK293 cells, Fluo-4 calcium flux, primary screen (AID 588676);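 on B-score: peak minus trough fluorescence over baseline after final BAM8-22 challenge near maximal dose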
Condition Set: Fluo-4, BAM8-22 antagonism, at 10 µM; active compounds read low
Among all 310,000 compounds or so, about 3,900 (1.3%) were called active. The entries come from a sample that favours actives as a whole.
Test Readout: B-score

Solved entries:
Compound	B-score
CCCN1C2CCCC1CC(NC(=O)NC13CC4CC(CC(C4)C1)C3)C2 (stereo not given)	inactive
Cc1ccc(S(=O)(=O)N2[C@@H](c3ccccc3F)C(C(=O)O)=CC[C@H]2c2ccc(Cl)cc2)cc1	inactive
Cc1cccn2c(=O)c(/C=C3\SC(=S)N(CC(C)C)C3=O)c(NCCCOC(C)C)nc12	-11.6 (active)
O=C(COc1ccccc1)Nc1ccc(C(=O)N2CCCC2)cc1	inactive

As a next step, examine the compound that follows.
Can you share its B-score? I mean this compound: CCCCCCCCCCCCN1C(=O)CSC1c1cccnc1 (stereo not given)
inactive

* * *

Target Entity: Mas-related G-protein coupled receptor member X1 (Homo sapiens) (UniProt Q96LB2)
Sequence (Q96LB2 whole entry, looked up): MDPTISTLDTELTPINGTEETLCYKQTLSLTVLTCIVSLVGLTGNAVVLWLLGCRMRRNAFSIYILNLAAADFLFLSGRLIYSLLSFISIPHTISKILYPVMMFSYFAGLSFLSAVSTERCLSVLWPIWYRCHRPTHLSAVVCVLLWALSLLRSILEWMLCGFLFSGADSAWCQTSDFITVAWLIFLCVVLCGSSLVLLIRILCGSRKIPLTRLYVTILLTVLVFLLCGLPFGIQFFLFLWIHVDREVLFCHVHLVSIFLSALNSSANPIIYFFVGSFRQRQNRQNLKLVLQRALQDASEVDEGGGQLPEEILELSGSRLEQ
Test Description: blockade of BAM8-22-evoked MrgX1 calcium response – HEK293 cells, Fluo-4 calcium flux, primary screen (AID 588676)
Condition Set: Fluo-4, BAM8-22 antagonism, at 10 µM
Among all 310,000 compounds or so, about 3,900 (1.3%) were called active.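 Rule for the calls: active = calcium-response B-score plate-corrected more than 3 library SD below zero, starting fluorescence within 5 deviations, no agonist response on first addition; inactive = the rest.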 The entries come from a sample that favours actives as a whole.
Just give me one of these, please: active, inactive

See these solved cases before continuing.
Compound	Qualitative Label
CCCCCCn1c(CN2CCCC(C)C2)nc2c1c(=O)n(C)c(=O)n2C (centres undefined)	inactive
Oc1cc2c(cc1O)CN(C(=S)NCCc1ccc(Cl)cc1)CCC2	inactive
CCCCC(O)(CCCC)C(=O)NN(C(=O)CCl)c1ccccc1	inactive
CCOc1ccccc1C1CC(c2ccc(Cl)cc2)Nc2nc(N)nn21 (centres undefined)	active

Test call for this compound, please: CCN(CC)CCNCC(=O)Nc1ccc(Oc2ccccc2)cc1
inactive

Taken from PubChem BioAssay AID588676.
